target: BACE1 (Homo sapiens (Human)); experiment: In vitro BACE1 cell-based assay (Aβ40 in conditioned medium of cells stably expressing APP, HTRF); conditions: Aβ40 in conditioned media after 24 h incubation
Sequence (P56817 46-501, species assumed): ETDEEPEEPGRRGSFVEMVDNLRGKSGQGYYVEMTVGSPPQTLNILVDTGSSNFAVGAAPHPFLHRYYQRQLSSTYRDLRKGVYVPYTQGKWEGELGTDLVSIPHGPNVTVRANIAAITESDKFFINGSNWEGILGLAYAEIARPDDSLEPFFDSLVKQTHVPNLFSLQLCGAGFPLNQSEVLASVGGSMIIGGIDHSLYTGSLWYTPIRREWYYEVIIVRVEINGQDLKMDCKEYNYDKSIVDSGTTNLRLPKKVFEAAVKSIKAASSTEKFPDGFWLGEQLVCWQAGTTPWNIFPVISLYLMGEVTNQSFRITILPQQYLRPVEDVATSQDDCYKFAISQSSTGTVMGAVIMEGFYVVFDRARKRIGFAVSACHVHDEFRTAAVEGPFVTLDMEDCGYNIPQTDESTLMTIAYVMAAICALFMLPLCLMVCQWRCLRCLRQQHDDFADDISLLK
readout.type: IC50 (nM)
Numbers only, in nM.

# count of solved cases: 2
{"molecule": "CC1(C)C(N)=N[C@](C)(c2cc(/C=C(\\F)c3ncc(C(F)(F)F)cc3Cl)ccc2F)CS1(=O)=O [Example 264]", "target.under.test": "BACE1 (Homo sapiens (Human))", "reported.value": 75}
{"molecule": "CN1C(N)=N[C@](C)(c2cc(/C=C(\\F)c3cnc(OCC#CCF)cn3)ccc2F)CS1(=O)=O [Example 254]", "target.under.test": "BACE1 (Homo sapiens (Human))", "reported.value": 21}

From here, focus on the item given below.
What value of measured IC50 is listed for Cc1noc(COc2cnc(/C(F)=C/c3ccc(F)c([C@]4(C)CS(=O)(=O)C(C)(C)C(N)=N4)c3)cn2)n1 [Example 175] ?
53

Entry source: patent US11021493B2
